Listed compounds paired with reported viability, T/C
tested on: 266295-075-R-J1-PDC spheroid viability; test: Anticancer human tumor 266295-075-R-J1-PDC patient-derived head and neck squamous carcinoma cell line growth inhibition [POLQ]; details: second compound 0.1 µM; first compound 10 µM; active compounds read low; spheroids with HUVEC and MSC;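 further: spheroids exposed to compounds for seven days before readout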
A number alone suffices; assume %.

Solved entries (count: 5):
{"columns": ["compound", "viability, T/C (%)"],
 "data": [
  ["COc1cc2cc(C(=O)CCC(=O)O)sc2cc1OC + Cc1cccc(N(C)C(=O)C2C(O)CCN2c2nc(C)cc(C(F)(F)F)c2C#N)c1", 115],
  ["O=c1[nH]cc(F)c(=O)[nH]1 + COC1C(OC(N)=O)C(O)C(Oc2ccc3c(O)c(NC(=O)c4ccc(O)c(CC=C(C)C)c4)c(=O)oc3c2C)OC1(C)C", 103],
  ["CC1COCCN1c1cc(-c2ccnn2C)c2ccnc(-c3ccn[nH]3)c2n1 (stereo unspecified) + Cc1cccc(N(C)C(=O)C2C(O)CCN2c2nc(C)cc(C(F)(F)F)c2C#N)c1", 40.9],
  ["CC1COCCN1c1cc(C2(O)CC3CCC(C2)O3)c2cnn(-c3ccn[nH]3)c2n1 (stereo unspecified) + Nc1ccc(C#CCN(C(=O)Cc2ncc(C(F)(F)F)cc2C(F)(F)F)c2ccc(F)cc2)nn1", 29.9],
  ["COc1ccc([C@@H](O)c2cc(-c3ncnc4cc(N5CCOCC5)ccc34)c(F)cc2Cl)nn1 + Cc1cccc(N(C)C(=O)C2C(O)CCN2c2nc(C)cc(C(F)(F)F)c2C#N)c1", 39.9]
]}

The reported value for CCc1cc2c(N3CCc4c(cc(Cn5ccnc5)cc4-c4cn(C)nc4C(F)(F)F)C3=O)cc(C)nc2c(OC)n1 + Cc1cccc(N(C)C(=O)C2C(O)CCN2c2nc(C)cc(C(F)(F)F)c2C#N)c1 in terms of viability, T/C is 114

The reported value for C=CC(=O)N1CCN(c2nc(=O)n(-c3c(C)ccnc3C(C)C)c3nc(-c4c(O)cccc4F)c(F)cc23)C(C)C1 (stereo unspecified) + Cc1cccc(N(C)C(=O)C2C(O)CCN2c2nc(C)cc(C(F)(F)F)c2C#N)c1 in terms of viability, T/C is 131

The reported value for CCCS(=O)(=O)Nc1ccc(F)c(C(=O)c2c[nH]c3ncc(-c4ccc(Cl)cc4)cc23)c1F + Nc1ccc(C#CCN(C(=O)Cc2ncc(C(F)(F)F)cc2C(F)(F)F)c2ccc(F)cc2)nn1 in terms of viability, T/C is 145

The reported value for COc1cc(C2c3cc4c(cc3C(OC3OC5COC(C)OC5C(O)C3O)C3COC(=O)C23)OCO4)cc(OC)c1O (stereo unspecified) + COC1C(OC(N)=O)C(O)C(Oc2ccc3c(O)c(NC(=O)c4ccc(O)c(CC=C(C)C)c4)c(=O)oc3c2C)OC1(C)C in terms of viability, T/C is 77.4

The reported value for CC(C)n1c(=O)n(C)c2cnc3cc(F)c(-c4ccc(OCCCN5CCCCC5)nc4)cc3c21 + Nc1ccc(C#CCN(C(=O)Cc2ncc(C(F)(F)F)cc2C(F)(F)F)c2ccc(F)cc2)nn1 in terms of viability, T/C is 64.5

The reported value for COc1cc(C2c3cc4c(cc3C(OC3OC5COC(C)OC5C(O)C3O)C3COC(=O)C23)OCO4)cc(OC)c1O (stereo unspecified) + Nc1ccc(C#CCN(C(=O)Cc2ncc(C(F)(F)F)cc2C(F)(F)F)c2ccc(F)cc2)nn1 in terms of viability, T/C is 80.1
